Would you mind telling me the reported Ki of each entry?
# test_system: MMP-13 (Homo sapiens)
# Construct: made in house; host or cells: baculovirus / insect cells
# experiment_notes: In vitro MMP inhibition, Ki determination (fluorogenic substrate II)
# Type: biochemical
# cond: value not in parenthesis; read-out: MMP-13 Ki
Numbers only here, please. The scale is nM.

Note Ki for the compound shown: "O=C(NO)C1(S(=O)(=O)N2CCN(c3ccc(COCC(F)(F)C(F)(F)F)cc3)CC2)CCOCC1"
0.61

Note Ki for the compound shown: "CCCCOc1ccc(N2CCN(S(=O)(=O)C3(C(=O)NO)CCN(C(=O)N4CCCC4)CC3)CC2)cc1"
0.17

Note Ki for the compound shown: "CCCCOc1ccc(N2CCN(S(=O)(=O)C3(C(=O)NO)CCN(C(=O)c4cccs4)CC3)CC2)cc1"
0.417

Note Ki for the compound shown: CCc1ccc(N2CCN(S(=O)(=O)C3(C(=O)NO)CCOCC3)CC2)nc1 [Example 137]
0.75

Note Ki for the compound shown: "O=C(NO)C1(S(=O)(=O)N2CCN(c3ccc(COCC(F)(F)F)cc3)CC2)CCOCC1"
0.85

Note Ki for the compound shown: "O=C(NO)C1(S(=O)(=O)N2CCN(c3ccc(OC4CCC4)c(F)c3)CC2)CCOCC1"
9.78

Note Ki for the compound shown: "CCCCOc1ccc(N2CCN(S(=O)(=O)C3(C(=O)NO)CCN(C(=O)NC(C)(C)C)CC3)CC2)cc1"
0.327

Note Ki for the compound shown: "CCCCc1ccc(N2CCN(S(=O)(=O)C3(C(=O)NO)CCOCC3)CC2)c(F)c1"
1.64
